Test: In vivo mouse pharmacokinetics, paired oral co-dosing, plasma and brain
Set-up: species or system mice
Details: plasma, 10 mg/kg po co-dosed, 6 hr, read-out: Plasma concentration
Description: In a first study, the compounds of Examples 2 to 6 are compared to the Compound of Formula A (Example 1) using standard procedures in mice. In each test, two compounds are co-dosed in a single animal and the relative pharmacokinetics in plasma and brain is determined. […] After single dose oral administration of the test compounds together, plasma and brain levels are measured at 0.25, 0.5, 1, 2, 4, and 6 hours post-dosing. […]
Measured Quantity: concentration at 6 hr

* [2H]C(C(=O)[C@@]1([2H])CC[C@H]2[C@@H]3CC[C@H]4C[C@@](O)(COC([2H])([2H])[2H])CC[C@]4(C)[C@H]3CC[C@@]21C)n1ccnc1 (stereo partly drawn) [Example 5] | 725 ng/mL
* [2H]c1nc([2H])n(CC(=O)[C@H]2CC[C@H]3[C@@H]4CC[C@H]5C[C@@](O)(COC([2H])([2H])[2H])CC[C@]5(C)[C@H]4CC[C@]23C)c1[2H] [Example 4] | 423 ng/mL
* COC[C@@]1(O)CC[C@@]2(C)[C@@H](CC[C@@H]3[C@@H]2CC[C@]2(C)[C@@H](C(=O)Cn4ccnc4)CC[C@@H]32)C1 [Example 1] | 1750 ng/mL

###

Below is a list of entries, each paired with its recorded Cmax value.
assay: In vivo mouse pharmacokinetics, paired oral co-dosing, plasma and brain; parameters: species or system mice; details: plasma, 10 mg/kg po co-dosed
Measured Quantity: Cmax (ng/mL)

* [2H]C([2H])([2H])OC[C@@]1(O)CC[C@@]2(C)[C@@H](CC[C@@H]3[C@@H]2CC[C@]2(C)[C@@H](C(=O)Cn4ccnc4)CC[C@@H]32)C1 [Example 3] | 2420
* [2H]c1nc([2H])n(C([2H])C(=O)[C@@]2([2H])CC[C@H]3[C@@H]4CC[C@H]5C[C@@](O)(COC([2H])([2H])[2H])CC[C@]5(C)[C@H]4CC[C@@]32C)c1[2H] (stereo partly drawn) [Example 6] | 2120
* [2H]c1nc([2H])n(CC(=O)[C@H]2CC[C@H]3[C@@H]4CC[C@H]5C[C@@](O)(COC([2H])([2H])[2H])CC[C@]5(C)[C@H]4CC[C@]23C)c1[2H] [Example 4] | 2520
* COC[C@@]1(O)CC[C@@]2(C)[C@@H](CC[C@@H]3[C@@H]2CC[C@]2(C)[C@@H](C(=O)Cn4ccnc4)CC[C@@H]32)C1 [Example 1] | 2580
* [2H]c1nc([2H])n(CC(=O)[C@H]2CC[C@H]3[C@@H]4CC[C@H]5C[C@@](O)(COC)CC[C@]5(C)[C@H]4CC[C@]23C)c1[2H] [Example 2] | 2550
* [2H]C(C(=O)[C@@]1([2H])CC[C@H]2[C@@H]3CC[C@H]4C[C@@](O)(COC([2H])([2H])[2H])CC[C@]4(C)[C@H]3CC[C@@]21C)n1ccnc1 (stereo partly drawn) [Example 5] | 2300
